src = PubChem BioAssay AID2765

tested on: MEF A1-2A-BIM cells, caspase 3/7 luminescence, 3 h; test: inducers of caspase signal in A1-dependent MEFs – cell-based, luminescence, retest, A1 inhibitor project, dose response (AID 2765)
Calls of active or inactive are those of the source.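 How the source made its calls: active means half-maximal concentration for the rise in caspase light signal at or below ten times the top tested dose; inconclusive means flat fit between 30% and 70% activity, or unreliable curve fit; inactive means the rest.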
Let's look at some compounds and their measured EC50.
PROPERTY: EC50

- COMPOUND: "Cn1c2ccccc2c2cnn(CC(=O)NCCCN3CCN(c4ccccc4F)CC3)c(=O)c21"
  PROPERTY: "EC50"
  EXPERIMENTAL_VALUE: "> 35 µM (inactive)"
- COMPOUND: "CCS(=O)(=O)c1nc2ccccc2n1Cc1ccccc1Cl"
  PROPERTY: "EC50"
  EXPERIMENTAL_VALUE: "> 35 µM (inactive)"
- COMPOUND: "CCOC(=O)C(=Cc1ccc(OCc2ccc([N+](=O)[O-])cc2)c(OC)c1)C(=O)OCC"
  PROPERTY: "EC50"
  EXPERIMENTAL_VALUE: "> 35 µM (inactive)"
- COMPOUND: "CCOC(=O)[C@@H]1[C@H]2COc3ccc(Br)cc3[C@H]2N2C(=O)N(c3ccc(Cl)cc3)C(=O)[C@@]12C"
  PROPERTY: "EC50"
  EXPERIMENTAL_VALUE: "> 35 µM (inactive)"
- COMPOUND: "CCOC(=O)C(C(=O)OCC)C(C(=O)OCC)N1CCOCC1 (stereo not given)"
  PROPERTY: "EC50"
  EXPERIMENTAL_VALUE: "> 35 µM (inactive)"
- COMPOUND: "O=C(N/N=C\\c1ccc(CN(Cc2ccc(Cl)cc2)S(=O)(=O)c2ccccc2)o1)C(=O)Nc1ccc(F)cc1"
  PROPERTY: "EC50"
  EXPERIMENTAL_VALUE: "> 35 µM (inactive)"
- COMPOUND: "CC(=O)Nc1ccc(NC(=O)c2cc(C)nn2-c2ccccc2)cc1"
  PROPERTY: "EC50"
  EXPERIMENTAL_VALUE: "> 35 µM (inactive)"
- COMPOUND: "COc1ccc(C2CC(c3c(O)cc(C)oc3=O)=NCCS2)c(OC)c1 (stereo not given)"
  PROPERTY: "EC50"
  EXPERIMENTAL_VALUE: "> 35 µM (inactive)"
- COMPOUND: "COc1ccc(-c2ccc3c(c2)S(=O)(=O)c2cccc(C(=O)NC[C@@H]4CCCO4)c2C3=O)cc1OC"
  PROPERTY: "EC50"
  EXPERIMENTAL_VALUE: "> 35 µM (inactive)"
- COMPOUND: "Cc1cc(Sc2ncnc(N)c2[N+](=O)[O-])ncn1"
  PROPERTY: "EC50"
  EXPERIMENTAL_VALUE: "> 35 µM (inactive)"
- COMPOUND: "COc1cc2c(c(OC)c1OC)-c1ccc(O)c(=O)cc1C(NC(C)=O)CC2 (stereo not given)"
  PROPERTY: "EC50"
  EXPERIMENTAL_VALUE: "> 35 µM (inactive)"
- COMPOUND: "CCc1nn(-c2cc(Oc3cccc4ccccc34)nc(-c3ccccc3)n2)c(N)c1C#N"
  PROPERTY: "EC50"
  EXPERIMENTAL_VALUE: "> 35 µM (inactive)"
- COMPOUND: "CCOC(=O)[C@H]1[C@H]2COc3ccc(OC)cc3[C@@H]2N2C(=O)CN(CC3CCCO3)C(=O)[C@@]12C (stereo not given in full)"
  PROPERTY: "EC50"
  EXPERIMENTAL_VALUE: "> 35 µM (inactive)"
- COMPOUND: "O=C(O)Cc1ccc(NC(=O)C(c2ccccc2)c2ccccc2)cc1"
  PROPERTY: "EC50"
  EXPERIMENTAL_VALUE: "> 35 µM (inactive)"
- COMPOUND: "COc1cc(C(=O)Nc2cc3c(cc2N2CCCCC2)n(C)c(=O)n3C)cc(OC)c1OC"
  PROPERTY: "EC50"
  EXPERIMENTAL_VALUE: "> 35 µM (inactive)"
- COMPOUND: "Cc1cc(Cl)ccc1OCC(=O)OCC(=O)c1c(N)n(C)c(=O)n(C)c1=O"
  PROPERTY: "EC50"
  EXPERIMENTAL_VALUE: "> 35 µM (inactive)"
- COMPOUND: "Cc1cc(=O)oc2cc(OCCC[n+]3ccccc3)ccc12"
  PROPERTY: "EC50"
  EXPERIMENTAL_VALUE: "> 35 µM (inactive)"
- COMPOUND: "Cc1ccc(NC(=S)N(CCCN2CCCC2)Cc2cccn2Cc2ccc(Cl)cc2)cc1Cl"
  PROPERTY: "EC50"
  EXPERIMENTAL_VALUE: "> 35 µM (inactive)"
- COMPOUND: "CC(C)CC(NC(=O)c1ccc(Cl)cc1)C(=O)OCC(=O)c1ccc2c(c1)NC(=O)CO2 (stereo not given)"
  PROPERTY: "EC50"
  EXPERIMENTAL_VALUE: "5.35 µM"
- COMPOUND: "O=S1(=O)C=C(Sc2nc3cc(Cl)ccc3o2)c2ccccc21"
  PROPERTY: "EC50"
  EXPERIMENTAL_VALUE: "> 35 µM (inactive)"
